Reference for the values: PubChem BioAssay (NCI)

Assay explanation: NCI Yeast Anticancer Drug Screen. Data for the sgs1 mgt1 strain (AID 161);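 also: 0% = growth of cultures given vehicle only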
Setup conditions: S. cerevisiae sgs1 mgt1 strain, at 50.0 µM (retest, dose inferred, filed as 5.0), hits give high values
Description: Growth inhibition of yeast strains with defined genetic alterations is measured as a screen for potential anti-cancer activity. Selected strains with alterations in DNA damage repair or cell cycle control were exposed to compounds and growth inhibition was measured relative to vehicle treated controls. The strain used in this assay is sgs1 mgt1
About 79,000 compounds went through this panel and 15% of them were active in at least one assay; those are over-represented in the sample as a whole.
Parameter measured: growth inhibition (%)
Report the value in % with no unit label.

Suppose we examine the compound "CSc1ccc(/C=N/NC(N)=S)cc1" ; what growth inhibition value has been reported? 12

Suppose we examine the compound "C1=NCCN=Cc2ccccc2NCCNc2ccccc21" ; what growth inhibition value has been reported? 41

Suppose we examine the compound "O=C1SCCN1/N=C/c1ccc([N+](=O)[O-])o1" ; what growth inhibition value has been reported? 92

Suppose we examine the compound "CC[N+]1=C(/C=C\c2cc(C)c3cccnc3c2O)C(C)(C)c2ccccc21" ; what growth inhibition value has been reported? 98

Suppose we examine the compound "C=CCOc1ccc(N=NC(C#N)C#N)cc1" ; what growth inhibition value has been reported? 88

Suppose we examine the compound "Nc1nc2nn(-c3ccc(C(=O)O)cc3)nc2c(=O)[nH]1" ; what growth inhibition value has been reported? 3

Suppose we examine the compound "COC(=O)c1nc(=S)[nH]c(C(=O)OC)c1C(=O)c1ccc2ccccc2c1" ; what growth inhibition value has been reported? 97

Suppose we examine the compound COc1cccc2c1C(=O)c1c(O)c(COC3CC(N)C(O)C(C)O3)cc(O)c1C2=O (configuration not stated) ; what growth inhibition value has been reported? 80

Suppose we examine the compound "C/C=c1/[nH]c(=O)/c(=C\c2ccccc2)[nH]c1=O" ; what growth inhibition value has been reported? 2

Suppose we examine the compound CS(=O)(=O)OC1COC2C(I)COC12 (configuration not stated) ; what growth inhibition value has been reported? 83

Suppose we examine the compound "Oc1c(Cl)cc(Br)cc1Cl" ; what growth inhibition value has been reported? 93

Suppose we examine the compound "Cc1ccc2nc(C[n+]3ccc4ccccc4c3)ccc2c1" ; what growth inhibition value has been reported? 47
